Biological target: 72 kDa type IV collagenase (Homo sapiens, UniProt P08253)
Sequence (P08253 whole entry): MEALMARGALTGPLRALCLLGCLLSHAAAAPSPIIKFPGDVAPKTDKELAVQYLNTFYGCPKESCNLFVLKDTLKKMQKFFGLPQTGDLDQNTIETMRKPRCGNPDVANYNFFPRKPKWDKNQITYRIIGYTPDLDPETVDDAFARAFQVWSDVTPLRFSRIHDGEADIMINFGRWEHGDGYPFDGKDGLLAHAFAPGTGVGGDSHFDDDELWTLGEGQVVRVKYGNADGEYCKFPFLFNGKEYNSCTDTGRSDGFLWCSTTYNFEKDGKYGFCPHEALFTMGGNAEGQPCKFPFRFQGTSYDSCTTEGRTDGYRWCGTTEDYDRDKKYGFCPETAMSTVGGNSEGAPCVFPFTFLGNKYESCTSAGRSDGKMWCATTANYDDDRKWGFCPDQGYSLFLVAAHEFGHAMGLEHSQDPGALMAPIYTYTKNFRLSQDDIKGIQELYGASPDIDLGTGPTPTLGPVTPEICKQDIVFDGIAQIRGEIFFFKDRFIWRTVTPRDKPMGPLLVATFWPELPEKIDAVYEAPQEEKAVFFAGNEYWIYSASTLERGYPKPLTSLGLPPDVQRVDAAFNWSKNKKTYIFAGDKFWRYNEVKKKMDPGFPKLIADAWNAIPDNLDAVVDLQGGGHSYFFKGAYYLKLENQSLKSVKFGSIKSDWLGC
Assay: Inhibition of human recombinant MMP2 transfected in mouse melanoma cells
MEASURED ENDPOINT: IC50 (µM)

Here are 4 molecules together with their reported answers.
>  <STRUCTURE STRING>
NS(=O)(=O)c1ccc(CCNC(=O)CN(CC(=O)O)S(=O)(=O)c2ccc(-c3ccccc3)cc2)cc1

>  <ENDPOINT VALUE>
5.12

$$$$
>  <STRUCTURE STRING>
NS(=O)(=O)c1ccc(CCNC(=O)CN(CC(=O)NO)S(=O)(=O)c2ccc(-c3ccccc3)cc2)cc1

>  <ENDPOINT VALUE>
0.0162

$$$$
>  <STRUCTURE STRING>
COc1ccc(S(=O)(=O)N(CC(=O)NO)CC(=O)NCCc2ccc(S(N)(=O)=O)cc2)cc1

>  <ENDPOINT VALUE>
0.0253

$$$$
>  <STRUCTURE STRING>
NS(=O)(=O)c1ccc(CCNC(=O)CN(CC(=O)O)S(=O)(=O)c2ccc(Oc3ccccc3)cc2)cc1

>  <ENDPOINT VALUE>
2.23

$$$$

a = COc1ccc(S(=O)(=O)N(CC(=O)O)CC(=O)NO)cc1
b = CC(C)[C@H](C(=O)NO)N(CC(=O)O)S(=O)(=O)c1ccc(-c2ccccc2)cc1
Query: Please indicate which has the smaller reported IC50: a , or b . Respond with the label that goes with your answer.
Result: b
(b: 0.0247 µM, a: 0.193 µM)

I = O=C(O)CN(CC(=O)NO)S(=O)(=O)c1ccc(Oc2ccccc2)cc1
II = CC(C)[C@H](C(=O)NO)N(CC(=O)O)S(=O)(=O)c1ccc(Oc2ccccc2)cc1
III = COc1ccc(S(=O)(=O)N(CC(=O)O)[C@@H](C(=O)NO)C(C)C)cc1
Query: Please put the entries in order of rising IC50. Dear reader, please state the labels in the requested order.
Result: II, I, III

A = NS(=O)(=O)c1ccc(CCNC(=O)CN(CC(=O)NO)S(=O)(=O)c2ccc(Oc3ccccc3)cc2)cc1
B = CC(C)[C@H](C(=O)NO)N(CC(=O)NCCc1ccc(S(N)(=O)=O)cc1)S(=O)(=O)c1ccc(Oc2ccccc2)cc1
Query: Choose between A and B : whose measured IC50 value is numerically larger? Please identify the chosen entry by its label.
Result: A
(A: 0.00157 µM, B: 0.00035 µM)
